B1: NF2 (merlin) isoform 7, human, full length (507 aa, lacks exons 2-3 = isoform-1 residues 39-121; exon-16 C-terminus), P35240-4 (parent)
chain: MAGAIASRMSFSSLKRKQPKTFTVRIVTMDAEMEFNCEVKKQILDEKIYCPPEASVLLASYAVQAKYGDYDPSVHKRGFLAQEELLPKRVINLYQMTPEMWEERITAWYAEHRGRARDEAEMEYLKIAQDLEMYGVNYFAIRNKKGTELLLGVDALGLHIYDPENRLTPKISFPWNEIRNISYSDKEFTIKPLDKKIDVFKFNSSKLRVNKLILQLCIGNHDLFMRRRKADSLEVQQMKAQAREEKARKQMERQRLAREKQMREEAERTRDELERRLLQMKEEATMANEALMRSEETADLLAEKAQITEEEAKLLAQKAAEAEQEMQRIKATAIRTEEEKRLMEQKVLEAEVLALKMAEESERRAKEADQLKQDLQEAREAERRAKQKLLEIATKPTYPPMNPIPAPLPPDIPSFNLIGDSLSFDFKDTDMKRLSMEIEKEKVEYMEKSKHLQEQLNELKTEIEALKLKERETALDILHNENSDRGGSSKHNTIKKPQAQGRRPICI

Variants of: B1
method.summary: reverse yeast two-hybrid deep mutational scan (rY2H-seq): NF2 isoform 7 mutant library as bait mated with wild-type prey strains; selection on medium lacking adenine for non-interacting pairs; NextSeq paired-end sequencing; enrichment vs …
experimental.setup: with EMILIN1 (elastin microfibril interfacer 1), Q9Y6C2; yeast diploids after mating (RBait_S3 x RPrey_S3), 30 °C, selection for reporter genes on NB agar; human tyrosine kinase ABL2 co-expressed as the active kinase …; HIGHER = WEAKER BINDING (the opposite of display enrichments): higher = stronger loss of interaction: reverse Y2H selects yeast in which bait and prey do NOT interact (growth without adenine), so a …; hits-only table; scale: rY2H score; numbering: uniprot, sequence starts at 1
Each entry below carries its recorded enrichment.
metric.name: enrichment

>>> result_value("E367L")
1.94
>>> result_value("T429K")
5.25
>>> result_value("E111A")
4.1
>>> result_value("A331E")
2.11
>>> result_value("L58P")
6.14
>>> result_value("L422A")
1.78
>>> result_value("M446V")
2.65
>>> result_value("A406S")
14.3
>>> result_value("E164A")
2.44
>>> result_value("M343K")
1.81
>>> result_value("E323K")
1.69
>>> result_value("I412A")
3.34
>>> result_value("L315W")
7.24
>>> result_value("P405L")
5.05
>>> result_value("E464L")
1.85
>>> result_value("K66A")
3.9
>>> result_value("P98L")
1.71
>>> result_value("R258V")
2.52
>>> result_value("E367A")
3.25
>>> result_value("E309A")
2.33
>>> result_value("I307Y")
2.93
>>> result_value("E264A")
12.8
>>> result_value("V74S")
6.93
>>> result_value("A128V")
1.56
>>> result_value("N137L")
2.24
>>> result_value("A381E")
1.42
>>> result_value("H159L")
2.93
>>> result_value("E362K")
4.17
>>> result_value("R363E")
3.15
>>> result_value("R77W")
1.39
>>> result_value("K469A")
5.72
>>> result_value("N176L")
1.82
>>> result_value("E123D")
1.52
>>> result_value("K330A")
2.6
>>> result_value("M251A")
6.14
>>> result_value("Q317R")
1.98
>>> result_value("A333K")
5.66
>>> result_value("A266K")
9.16
>>> result_value("T168A")
2.55
>>> result_value("R335E")
2.52
>>> result_value("T308D")
2.02
>>> result_value("L389E")
2.12
>>> result_value("T332D")
2.07
>>> result_value("R335K")
2.33
>>> result_value("R364E")
5.32
>>> result_value("Y398L")
2.45
>>> result_value("D428K")
4.1
>>> result_value("Y398E")
15.7
>>> result_value("L315K")
4.2
>>> result_value("R270K")
5.67
>>> result_value("R379A")
2.9
>>> result_value("F426V")
2.88
>>> result_value("G157K")
3.64
>>> result_value("R364K")
2.07
>>> result_value("I404K")
1.59
>>> result_value("L417I")
8.54
>>> result_value("A107E")
6.39
>>> result_value("L150A")
2.56
>>> result_value("E339T")
5.99
>>> result_value("R341T")
3.59
>>> result_value("E323G")
1.92
>>> result_value("L300E")
5.18
>>> result_value("A290L")
38.6
>>> result_value("Q345T")
13.4
>>> result_value("S73K")
2
>>> result_value("I307L")
3.37
>>> result_value("R263E")
2.7
>>> result_value("A381V")
1.43
>>> result_value("V39G")
1.41
>>> result_value("L371K")
2.49
>>> result_value("L342E")
3.94
>>> result_value("P413L")
2.88
>>> result_value("H75E")
6.72
>>> result_value("D476V")
5.43
>>> result_value("Q345E")
3.31
>>> result_value("L314N")
18.6
>>> result_value("E177L")
2.3
>>> result_value("E259L")
1.72
>>> result_value("Q373Y")
3.17
>>> result_value("Y161A")
2.63
>>> result_value("L478A")
1.45
>>> result_value("Q324Y")
1.67
>>> result_value("M343E")
3.19
>>> result_value("K340A")
2.67
>>> result_value("D484K")
2.87
>>> result_value("L375A")
4.49
>>> result_value("G419L")
2.72
>>> result_value("K386T")
7.62
>>> result_value("E377A")
4.03
>>> result_value("D425L")
3.06
>>> result_value("A406K")
2.13
